system: Escherichia coli; assay: Antibacterial activity against Escherichia coli NCIM-2065 after 24 hrs by broth dilution method; assay type: functional; settings: NCIM-2065, 24 h
Recorded Metric: MIC (µg/mL)
API: value field is a number in µg/mL; no unit string.

Compound	Recorded Metric	Unit Annotation	Measured
O=[N+]([O-])c1cccc(Nc2nc(NC(=S)N3N=C(c4ccccc4)CC3c3ccccc3[N+](=O)[O-])nc(Nc3cccc([N+](=O)[O-])c3)n2)c1 (configuration not stated)	MIC	µg/mL	125
O=[N+]([O-])c1cccc(Nc2nc(NC(=S)N3N=C(c4ccccc4)CC3c3ccccc3Cl)nc(Nc3cccc([N+](=O)[O-])c3)n2)c1 (configuration not stated)	MIC	µg/mL	15.6
Fc1ccc(Nc2nc(NC(=S)N3N=C(c4ccccc4)CC3c3ccccc3Cl)nc(Nc3ccc(F)cc3)n2)cc1 (configuration not stated)	MIC	µg/mL	15.6
S=C(Nc1nc(Nc2ccc(Cl)cc2)nc(Nc2ccc(Cl)cc2)n1)N1N=C(c2ccccc2)CC1c1ccccc1Cl (configuration not stated)	MIC	µg/mL	15.6
O=[N+]([O-])c1cccc(Nc2nc(NC(=S)N3N=C(c4ccccc4)CC3c3ccc(Cl)cc3)nc(Nc3cccc([N+](=O)[O-])c3)n2)c1 (configuration not stated)	MIC	µg/mL	31.2
S=C(Nc1nc(Nc2ccc(Cl)cc2)nc(Nc2ccc(Cl)cc2)n1)N1N=C(c2ccccc2)CC1c1ccccc1 (configuration not stated)	MIC	µg/mL	31.2

Name the recorded MIC of O=[N+]([O-])c1cccc(Nc2nc(NC(=S)N3N=C(c4ccccc4)CC3c3ccccc3)nc(Nc3cccc([N+](=O)[O-])c3)n2)c1 (configuration not stated) , assay system Escherichia coli. 7.81

---

system: Pseudomonas aeruginosa; assay: Antibacterial activity against Pseudomonas aeruginosa NCIM-2036 after 24 hrs by broth dilution method; format: functional; conditions: NCIM-2036, 24 h
Recorded Metric: log10 MIC (log10 of the value in µg/mL)
All values: base-10 log of MIC in µg/mL.

Illustrative cases are given below, each with its answer.
Molecule	Measured
O=[N+]([O-])c1cccc(Nc2nc(NC(=S)N3N=C(c4ccccc4)CC3c3ccccc3)nc(Nc3cccc([N+](=O)[O-])c3)n2)c1 (centres undefined)	0.89
O=[N+]([O-])c1cccc(Nc2nc(NC(=S)N3N=C(c4ccccc4)CC3c3ccc(Cl)cc3)nc(Nc3cccc([N+](=O)[O-])c3)n2)c1 (centres undefined)	1.49
O=[N+]([O-])c1ccccc1C1CC(c2ccccc2)=NN1C(=S)Nc1nc(Nc2ccc(Cl)cc2)nc(Nc2ccc(Cl)cc2)n1 (centres undefined)	2.10

Please give measured log10 MIC of the following entry: O=[N+]([O-])c1ccc(C2CC(c3ccccc3)=NN2C(=S)Nc2nc(Nc3cccc([N+](=O)[O-])c3)nc(Nc3cccc([N+](=O)[O-])c3)n2)cc1 (centres undefined) 1.80

Hello, please tell me recorded log10 MIC for this one: Fc1ccc(Nc2nc(NC(=S)N3N=C(c4ccccc4)CC3c3ccccc3)nc(Nc3ccc(F)cc3)n2)cc1 (centres undefined) 1.19

Report log10 MIC, nothing else, for this molecule: S=C(Nc1nc(Nc2ccc(Cl)cc2)nc(Nc2ccc(Cl)cc2)n1)N1N=C(c2ccccc2)CC1c1ccc(Cl)cc1 (centres undefined) 0.89

Provide measured log10 MIC value, entry: Fc1ccc(Nc2nc(NC(=S)N3N=C(c4ccccc4)CC3c3ccc(Cl)cc3)nc(Nc3ccc(F)cc3)n2)cc1 (centres undefined) 0.89

Please list log10 MIC recorded for the molecule O=[N+]([O-])c1ccccc1C1CC(c2ccccc2)=NN1C(=S)Nc1nc(Nc2ccc(F)cc2)nc(Nc2ccc(F)cc2)n1 (centres undefined) 1.49

Consider the molecule C=CC1=C(C(=O)O)N2C(=O)[C@@H](NC(=O)/C(=N\OCC(=O)O)c3csc(N)n3)[C@H]2SC1 [CEFIXIME] . State its measured log10 MIC. 0.59
